Hello, the source for this data is patent US8853230B2, in case you need it.

TARGET_SYSTEM: JAK1 (Homo sapiens)
Construct: 5 μl of catalytic domain recombinant Kinase enzyme+Tyr peptide substrate (Invitrogen, Calif.)
Sequence (P23458 875-1153 limits assumed): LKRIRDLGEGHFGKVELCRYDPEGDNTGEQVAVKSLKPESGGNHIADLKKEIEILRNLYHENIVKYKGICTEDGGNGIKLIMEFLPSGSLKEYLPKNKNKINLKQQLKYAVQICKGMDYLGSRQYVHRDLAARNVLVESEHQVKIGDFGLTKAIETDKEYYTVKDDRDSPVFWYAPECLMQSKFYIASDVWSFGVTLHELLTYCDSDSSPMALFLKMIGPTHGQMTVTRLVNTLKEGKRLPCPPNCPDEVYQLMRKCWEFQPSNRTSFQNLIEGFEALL
MEASUREMENT_DESCRIPTION: Z'-LYTE kinase assay, JAK1 tyrosine phosphorylation activity
RUN_CONDITIONS: read-out: JAK 1 IC50
IC50 overview
QUANTITY_KIND: IC50

>>> observed_measurement("NC(=O)c1cnc(Nc2ccc(F)c(NC(=O)N3CCCC3)c2)cc1NCc1cccnc1 [Example 304]")
"> 1000 nM"
>>> observed_measurement("CC[C@H](C)Nc1nc(Nc2ccc(Cl)c(NC(=O)N3CCCC3)c2)ncc1C(N)=O [Example 176]")
"10 to 100 nM"
>>> observed_measurement("COCC(=O)N(C)c1cccc(Nc2ncc(C(N)=O)c(NCC3CC3)n2)c1 [Example 125]")
"10 to 100 nM"
>>> observed_measurement("NC(=O)c1cnc(Nc2cccc(NC(=O)N3CC[C@H](O)C3)c2)nc1NCc1ccccc1 [Example 143]")
"10 to 100 nM"

====

TARGET_SYSTEM: Syk (Homo sapiens, UniProt P43405)
MEASUREMENT_DESCRIPTION: Syk IC50 (Table 1; method not given)
Type: biochemical
pIC50: −log10 of the molar value.
QUANTITY_KIND: pIC50

>>> observed_measurement("COCC(=O)Nc1cccc(Nc2ncc(C(N)=O)c(NCc3ccc(Cl)cc3)n2)c1")
"< 6.00"
>>> observed_measurement("CC(=O)Nc1cccc(Nc2ncc(C(N)=O)c(NCCC(N)=O)n2)c1")
"< 6.00"
>>> observed_measurement("COC(=O)Nc1cc(Nc2ncc(C(N)=O)c(NC3CCCC3)n2)ccc1Cl")
"6.00 to 7.00"
>>> observed_measurement("CCC(=O)Nc1cccc(Nc2ncc(C(N)=O)c(NCc3ccccc3)n2)c1")
"< 6.00"
>>> observed_measurement("COCC(=O)Nc1cccc(Nc2ncc(C(N)=O)c(NC(C)C)n2)c1")
"6.00 to 7.00"
>>> observed_measurement("CN(C)[C@@H]1CCN(C(=O)Nc2cccc(Nc3cc(NCc4cccc(F)c4)c(C(N)=O)cn3)c2)C1")
"< 6.00"
>>> observed_measurement("CC(=O)Nc1cccc(Nc2ncc(C(N)=O)c(N[C@@H](C)C(N)=O)n2)c1")
"< 6.00"
>>> observed_measurement("CC(=O)Nc1cccc(Nc2ncc(C(N)=O)c(NCc3ccccc3)n2)c1")
"6.00 to 7.00"

====

TARGET_SYSTEM: JAK2 (Homo sapiens, UniProt O60674)
Construct: 5 μl of catalytic domain recombinant Kinase enzyme+Tyr peptide substrate (Invitrogen, Calif.)
Sequence (O60674 849-1124 limits assumed): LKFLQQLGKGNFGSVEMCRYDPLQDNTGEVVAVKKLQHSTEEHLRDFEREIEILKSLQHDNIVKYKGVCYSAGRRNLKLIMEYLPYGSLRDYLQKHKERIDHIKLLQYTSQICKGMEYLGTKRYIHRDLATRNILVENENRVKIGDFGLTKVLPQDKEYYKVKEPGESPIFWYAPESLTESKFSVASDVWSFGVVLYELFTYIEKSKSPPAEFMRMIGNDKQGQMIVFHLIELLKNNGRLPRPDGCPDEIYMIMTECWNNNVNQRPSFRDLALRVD
MEASUREMENT_DESCRIPTION: Z'-LYTE kinase assay, JAK2 tyrosine phosphorylation activity
pIC50: −log10 of the molar value.
QUANTITY_KIND: pIC50

>>> observed_measurement("COc1ccc(Nc2ncc(C(N)=O)c(NCc3cccc(F)c3)n2)cc1N(C)C(=O)N1CCCC1")
"< 6.00"
>>> observed_measurement("NC(=O)c1cnc(Nc2ccc(Cl)c(NC(=O)N3CCC3)c2)nc1NCc1ccccc1")
"6.00 to 7.00"
>>> observed_measurement("CC(=O)N(C)c1cccc(Nc2ncc(C(N)=O)c(NC(C)C)n2)c1")
"7.00 to 8.00"
>>> observed_measurement("COCC(=O)N(c1cccc(Nc2ncc(C(N)=O)c(NCc3ccccc3)n2)c1)C1CC1")
"< 6.00"
>>> observed_measurement("COC(=O)Nc1cc(Nc2ncc(C(N)=O)c(N[C@H](C)c3ccccc3)n2)ccc1Cl")
"6.00 to 7.00"
>>> observed_measurement("NC(=O)c1cnc(Nc2cccc(NC(=O)C3CCOC3)c2)nc1NCc1ccccc1 (centres unmarked)")
"7.00 to 8.00"
>>> observed_measurement("CCC(C)CNc1nc(Nc2cccc(NC(C)=O)c2)ncc1C(N)=O (centres unmarked)")
"8.00 to 9.00"
>>> observed_measurement("CC(C)OC(=O)Nc1cccc(Nc2ncc(C(N)=O)c(NCc3ccccc3)n2)c1")
"6.00 to 7.00"
>>> observed_measurement("CC(=O)Nc1cccc(Nc2cc(NCc3ccccc3F)c(C(N)=O)cn2)c1")
"6.00 to 7.00"
>>> observed_measurement("CNC(=O)c1cnc(Nc2cccc(NC(=O)COC)c2)nc1NCc1ccccc1")
"< 6.00"
>>> observed_measurement("CC[C@H](C)Nc1nc(Nc2cccc(NC(=O)COC)c2)ncc1C(N)=O")
"6.00 to 7.00"
>>> observed_measurement("COCC(=O)Nc1cccc(Nc2ncc(C(N)=O)c(N[C@H](C)c3ccccc3)n2)c1")
"7.00 to 8.00"
>>> observed_measurement("CC(=O)Nc1cccc(Nc2ncc(C(N)=O)c(Nc3cccc4c3ccn4C)n2)c1")
"8.00 to 9.00"
>>> observed_measurement("CC(=O)Nc1cccc(Nc2cc(NC3Cc4ccccc4C3)c(C(N)=O)cn2)c1")
"< 6.00"
>>> observed_measurement("CC(=O)Nc1cccc(Nc2ncc(C(N)=O)c(N[C@@H](C)c3ccccc3)n2)c1")
"6.00 to 7.00"
>>> observed_measurement("NC(=O)c1cnc(Nc2ccc(Cl)c(NC(=O)N3CCCC3)c2)nc1NCC1CCC1")
"< 6.00"
>>> observed_measurement("CC(=O)Nc1cccc(Nc2ncc(C(N)=O)c(NC[C@H](O)c3ccccc3)n2)c1")
"7.00 to 8.00"

====

TARGET_SYSTEM: JAK2 (Homo sapiens, UniProt O60674)
Construct: 5 μl of catalytic domain recombinant Kinase enzyme+Tyr peptide substrate (Invitrogen, Calif.)
MEASUREMENT_DESCRIPTION: Z'-LYTE kinase assay, JAK2 tyrosine phosphorylation activity
pIC50: −log10 of the molar value.
pIC50 overview
QUANTITY_KIND: pIC50

>>> observed_measurement("CC[C@H](C)Nc1nc(Nc2cccc(NC(=O)N3CCCC3)c2)ncc1C(N)=O [Example 145]")
"7.00 to 8.00"
>>> observed_measurement("CC(=O)Nc1cc(Nc2ncc(C(N)=O)c(Nc3cccc4nsnc34)n2)ccc1OCCN1CCCC1 [Example 227]")
"8.00 to 9.00"
>>> observed_measurement("CC(=O)Nc1cc(Nc2ncc(C(N)=O)c(NCc3cccc(F)c3)n2)ccc1OCCN(C)C [Example 228]")
"7.00 to 8.00"
>>> observed_measurement("CC(=O)Nc1cccc(Nc2ncc(C(N)=O)c(N[C@@H](C)C(C)C)n2)c1 [Example 247]")
"7.00 to 8.00"
>>> observed_measurement("CC(=O)Nc1ccc(F)c(Nc2ncc(C(N)=O)c(NCc3ccccc3)n2)c1 [Example 171]")
"6.00 to 7.00"
>>> observed_measurement("CC(=O)Nc1cccc(Nc2ncc(C(N)=O)c(Nc3cccc(-c4ncccn4)c3)n2)c1 [Example 199]")
"7.00 to 8.00"
>>> observed_measurement("NC(=O)Nc1cccc(Nc2ncc(C(N)=O)c(NC3CCCC3)n2)c1 [Example 33]")
"7.00 to 8.00"
>>> observed_measurement("NC(=O)Nc1cc(Nc2ncc(C(N)=O)c(NCc3ccccc3)n2)ccc1Cl [Example 194]")
"6.00 to 7.00"
>>> observed_measurement("COCC(=O)Nc1cccc(Nc2ncc(C(N)=O)c(NCc3ccccc3)n2)c1 [Example 29]")
"7.00 to 8.00"
>>> observed_measurement("COC(=O)Nc1cc(Nc2ncc(C(N)=O)c(NC3CCCC3)n2)ccc1Cl [Example 25]")
"6.00 to 7.00"
>>> observed_measurement("CC(=O)Nc1cccc(Nc2ncc(C(N)=O)c(NC[C@@H](C)c3ccccc3)n2)c1 [Example 3]")
"8.00 to 9.00"
>>> observed_measurement("CC(C)CCNc1cc(Nc2cccc(NC(=O)N3CCCC3)c2)ncc1C(N)=O [Example 328]")
"6.00 to 7.00"
>>> observed_measurement("CC(=O)Nc1cccc(Nc2ncc(C(N)=O)c(NCC3CCC3)n2)c1 [Example 262]")
"7.00 to 8.00"
>>> observed_measurement("NC(=O)c1cnc(Nc2cccc(NC(=O)N3CCCC3)c2)nc1NCC1CC1 [Example 123]")
"7.00 to 8.00"
>>> observed_measurement("CC(=O)Nc1cccc(Nc2cc(NCCc3ccccc3)c(C(N)=O)cn2)c1 [Example 338]")
"< 6.00"
>>> observed_measurement("COc1ccc(Nc2ncc(C(N)=O)c(NCc3ccccc3)n2)cc1N(C)C(=O)N1CCCC1 [Example 239]")
"7.00 to 8.00"
>>> observed_measurement("CC(=O)Nc1cccc(Nc2ncc(C(N)=O)c(NC[C@H](C)c3ccccc3)n2)c1 [Example 81]")
"7.00 to 8.00"

====

TARGET_SYSTEM: JAK2 (Homo sapiens, UniProt O60674)
Construct: 5 μl of catalytic domain recombinant Kinase enzyme+Tyr peptide substrate (Invitrogen, Calif.)
MEASUREMENT_DESCRIPTION: Z'-LYTE kinase assay, JAK2 tyrosine phosphorylation activity
IC50 overview
QUANTITY_KIND: IC50

>>> observed_measurement("CC(=O)Nc1cccc(Nc2ncc(C(N)=O)c(NCc3ccc(Cl)cc3)n2)c1")
"100 to 1000 nM"
>>> observed_measurement("CC(C)[C@H](C)Nc1nc(Nc2ccc(Cl)c(NC(=O)N3CCCC3)c2)ncc1C(N)=O")
"> 1000 nM"
>>> observed_measurement("CC(=O)Nc1cccc(Nc2ncc(C(N)=O)c(N[C@H](CO)Cc3cnc[nH]3)n2)c1")
"100 to 1000 nM"
>>> observed_measurement("CC(=O)Nc1cccc(Nc2ncc(C(N)=O)c(NCc3ccccc3)n2)c1")
"1 to 10 nM"
>>> observed_measurement("C[C@@H]1CCCN1C(=O)Nc1cccc(Nc2ncc(C(N)=O)c(N[C@H](C)c3ccccc3)n2)c1")
"10 to 100 nM"
>>> observed_measurement("NC(=O)c1cnc(Nc2cccc(NC(=O)[C@@H]3CCCO3)c2)nc1NCc1cccc(F)c1")
"10 to 100 nM"
>>> observed_measurement("CC(=O)Nc1cccc(Nc2cc(NC3CCCC3)c(C(N)=O)cn2)c1")
"100 to 1000 nM"
>>> observed_measurement("NC(=O)c1cnc(Nc2ccc(Cl)c(NC(=O)N3CCCC3)c2)nc1NCc1ccccc1")
"100 to 1000 nM"
>>> observed_measurement("CC(=O)Nc1cccc(Nc2ncc(C(N)=O)c(N[C@@H]3CCCNC3)n2)c1")
"100 to 1000 nM"
>>> observed_measurement("CC(=O)Nc1cc(Nc2ncc(C(N)=O)c(Nc3cccc4nsnc34)n2)ccc1OCCCN1CCCCC1")
"1 to 10 nM"
>>> observed_measurement("CC(=O)Nc1cc(Nc2ncc(C(N)=O)c(NCc3ccccc3)n2)ccc1F")
"10 to 100 nM"
>>> observed_measurement("COC(=O)Nc1cc(Nc2ncc(C(N)=O)c(NCc3ccccc3)n2)ccc1Cl")
"100 to 1000 nM"
>>> observed_measurement("NC(=O)c1cnc(Nc2cccc(NC(=O)N3CC=CC3)c2)nc1NCc1ccccc1")
"10 to 100 nM"
>>> observed_measurement("CC(=O)Nc1cccc(Nc2ncc(C(N)=O)c(NCC3CCCN(C(=O)Nc4ccc(F)cc4)C3)n2)c1 (stereo not drawn)")
"10 to 100 nM"
>>> observed_measurement("CNC(=O)Nc1cc(Nc2ncc(C(N)=O)c(NC3CCCC3)n2)ccc1Cl")
"10 to 100 nM"
>>> observed_measurement("CN(C)C(=O)Nc1cccc(Nc2ncc(C(N)=O)c(NC3CCCC3)n2)c1")
"10 to 100 nM"
>>> observed_measurement("CC(=O)Nc1cccc(Nc2ncc(C(N)=O)c(NCc3ccc4c(c3)OCO4)n2)c1")
"10 to 100 nM"
>>> observed_measurement("COCC(=O)Nc1cccc(Nc2ncc(C(N)=O)c(NCc3ccc(Cl)c(Cl)c3)n2)c1")
"> 1000 nM"
>>> observed_measurement("CC[C@@H](C)Nc1nc(Nc2cccc(NC(C)=O)c2)ncc1C(N)=O")
"1 to 10 nM"
>>> observed_measurement("COC(=O)Nc1cccc(Nc2ncc(C(N)=O)c(NC3CCCC3)n2)c1")
"10 to 100 nM"
>>> observed_measurement("CC(=O)Nc1cccc(Nc2ncc(C(N)=O)c(N[C@H]3CCC[C@@H]3O)n2)c1 (relative stereo)")
"10 to 100 nM"
>>> observed_measurement("CC(C)CNc1nc(Nc2ccc(Cl)c(NC(=O)N3CCCC3)c2)ncc1C(N)=O")
"10 to 100 nM"
>>> observed_measurement("CC(=O)Nc1cccc(Nc2ncc(C(N)=O)c(NC[C@@H](O)c3ccccc3)n2)c1")
"10 to 100 nM"
>>> observed_measurement("NC(=O)c1cnc(Nc2cc(NC(=O)N3CCCC3)ccc2F)nc1NCc1ccccc1")
"100 to 1000 nM"
>>> observed_measurement("COCC(=O)N(C)c1cccc(Nc2ncc(C(N)=O)c(N[C@H](C)c3ccccc3)n2)c1")
"1 to 10 nM"
>>> observed_measurement("CNC(=O)c1cnc(Nc2cccc(NC(C)=O)c2)cc1NCc1ccccc1")
"> 1000 nM"
>>> observed_measurement("CC(=O)Nc1cccc(Nc2ncc(C(N)=O)c(NCc3ccc(C)cc3)n2)c1")
"100 to 1000 nM"
>>> observed_measurement("CC(=O)Nc1cccc(Nc2ncc(C(N)=O)c(NC3CCOCC3)n2)c1")
"10 to 100 nM"
>>> observed_measurement("C[C@@H](Nc1nc(Nc2cccc(N(C)C(=O)N3CCCC3)c2)ncc1C(N)=O)c1ccccc1")
"10 to 100 nM"
>>> observed_measurement("CC(=O)Nc1cccc(Nc2cc(NCc3cccc(F)c3F)c(C(N)=O)cn2)c1")
"100 to 1000 nM"
>>> observed_measurement("CN(C)C(=O)Nc1cc(Nc2ncc(C(N)=O)c(NCc3ccccc3)n2)ccc1Cl")
"100 to 1000 nM"
>>> observed_measurement("COC[C@H]1CCCN1C(=O)Nc1cccc(Nc2ncc(C(N)=O)c(NCc3ccccc3)n2)c1")
"10 to 100 nM"
>>> observed_measurement("CN(C(=O)N1CCCC1)c1cccc(Nc2ncc(C(N)=O)c(NCc3ccccc3)n2)c1")
"10 to 100 nM"
